Molecular target: T1, ARHGAP21, Q5T5U3
T1 sequence (Q5T5U3 45-169, limits assumed, looked up): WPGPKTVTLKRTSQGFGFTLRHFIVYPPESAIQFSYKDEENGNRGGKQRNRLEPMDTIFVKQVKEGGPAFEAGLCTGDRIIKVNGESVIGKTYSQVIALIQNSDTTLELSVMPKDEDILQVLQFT
Experiment: holdup assay
Parameters: key: below the threshold = too weak to quantify, mostly under pKd 3.1 to 4
Conditions: plain residues with an end cap or a label only (N-terminal biotin on a linker: ado-ado)
quantity-name: pKd

• KRPEMTSSSV [MUC3B, MUC3A, Q02505;Q9H195] = 1.86
• KPGKGSETVV [FZD4, Q9ULV1] = 3.93
• ARESQKVSHV [FAM110B, Q8TC76] = 3.92
• MQHQRTHTRV [ZSCAN30, Q86W11] = 3.92
